// reported inhibition at 1 µM for each item listed
Molecular target: CDK2/CyclinE (Homo sapiens, UniProt P24941)
Construct: purchased Millipore, Billerica, Mass., USA
Experiment: ADP-Glo Kinase Assay, CDK2/CyclinE
Format: biochemical
Details: read-out: % inhibition at 1 μM CDK2/CyclinE
Description: Testing of the compounds described in this invention was carried out using the ADP-Glo™ Kinase Assay from Promega Corporation (Madison, Wis., USA). The ADP-Glo™ Kinase Assay is a luminescent ADP detection assay to measure kinase activity by quantifying the amount of ADP produced during a kinase reaction. The kinase assay is performed in kinase assay buffer (5 mM MOPS, pH 7.5, 5 mM MgCl2, 0.4 mM EDTA, 1.5 mM DTT). […]
Counter-ions that a name gives are not always drawn.

molecule="Brc1c(Br)c2c3c(nc(N4CCNCC4)n3CCC2)c1Br [Example 6, maleate]" observedvalue=0%
molecule="Cc1c(Br)c(Br)c2c3c1nc(N1CCN(C)CC1)n3CCC2 [Example 3AK]" observedvalue=0%
molecule="OC1CCN(c2nc3c(Br)c(Br)c(Br)c4c3n2CCC4)CC1 [Example 3A]" observedvalue=4%

Then this molecule:
Q: Given Brc1c(Br)c2c3c(nc(C4CCNCC4)n3CCC2)c1Br [Example 7E] , state its recorded inhibition at 1 µM.
Ans: 22%
